Molecular target: T1, 10E8-GT10.2 epitope scaffold (designed scaffold 10E8-GT10.2 with …, N-linked glycosylation sites added (positions not given))
T1 chain: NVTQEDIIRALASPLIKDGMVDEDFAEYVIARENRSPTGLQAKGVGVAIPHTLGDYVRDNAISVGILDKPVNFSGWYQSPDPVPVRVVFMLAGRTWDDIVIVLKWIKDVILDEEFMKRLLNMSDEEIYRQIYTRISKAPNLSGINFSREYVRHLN

Binder	Kd [µM]
NHP-10E8_MPER-GT10v55_W26-05 (antibody, V domains shown) VH: EVQLVESGGGLVQPGGSLRLSCAASGFTFSNYWMNWVRQAPGKGLEWVGFIKNKADGGTAAYAESVKGRFTISRDDSKNTLYLQMNSLKTEDTAVYYCTREATFYNFWSGYYTPQYGLDSWGQGVVVTVSS VL: QPVLTQPTSLSASPGASARLTCTLSSGISVGSYRIFWYQQKPGSPPRYLLNYHTDSDKHQGSGVPSRFSGSKDASANAGILLISGLQSEDEADYYCMIWHNNAHGLFGGGTRLTV	0.263
NHP-10E8_MPER-GT10v55_W10-11 (antibody, V domains shown) VH: EVQLVESGGGLVQPGGSLRLSCAASGFAFSDYTMDWVRQAPGKGLEWVGFIRSRDYGGKVDYAASVKGRFTISRDDSKNTAYLHMSSLKTEDTAVYYCTRSKRHYSFWSGDYPHYGLDSWGQGVVVTVSS VL: QSVVTQPPSVSGDPGQRVTIYCTGNSSNIGGYDVYWYQQVPGTAPKLLMYENNKRPSGVSDRFSGSKSGTSASLTITGLQSEDEAEYYCETWDNSLNGRVFGGGTRLTV	4.16
